Quick reference: ORYSAT herbicidal rating (rice tolerance) of the listed items.
Test system: ORYZA SATIVA, L. TEBONNET
Experiment: Rice tolerance to post-transplant applications under flooded paddy conditions, ORYSAT (Rice, Tebonnet);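 also: applied to flooded soil surface three days after transplanting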
Type: in vivo
Details: post-transplant rice, Rate 0.250 kg/ha, rated three to four weeks after treatment
Quantity: ORYSAT herbicidal rating (rice tolerance)

[[record]]
compound = "COC(=O)Cn1c(=O)n(C)c(=O)n(-c2cc(Oc3c(F)cc(C(F)(F)F)cc3Cl)ccc2Br)c1=O [Compound 2]"
system = "ORYZA SATIVA, L. TEBONNET"
number = 5.5

[[record]]
compound = "C#CCn1c(=O)n(CC(=O)OCC)c(=O)n(-c2cc(Oc3ccc(C(F)(F)F)cc3Cl)ccc2[N+](=O)[O-])c1=O [Compound 7]"
system = "ORYZA SATIVA, L. TEBONNET"
number = 0.0

[[record]]
compound = "COC(=O)Cn1c(=O)n(C)c(=O)n(-c2cc(Oc3c(F)cc(C(F)(F)F)cc3Cl)ccc2F)c1=O [Compound 4]"
system = "ORYZA SATIVA, L. TEBONNET"
number = 3.8

[[record]]
compound = "COC(=O)Cn1c(=O)[nH]c(=O)n(-c2cc(Oc3ccc(C(F)(F)F)cc3Cl)ccc2[N+](=O)[O-])c1=O [Compound 8]"
system = "ORYZA SATIVA, L. TEBONNET"
number = 1.0

[[record]]
compound = "CCOC(=O)Cn1c(=O)n(CC(=O)OC)c(=O)n(-c2cc(Oc3ccc(C(F)(F)F)cc3Cl)ccc2[N+](=O)[O-])c1=O [Compound 6]"
system = "ORYZA SATIVA, L. TEBONNET"
number = 1.0

[[record]]
compound = "CCOC(=O)Cn1c(=O)[nH]c(=O)n(-c2cc(Oc3c(F)cc(C(F)(F)F)cc3Cl)ccc2C#N)c1=O [Compound 10]"
system = "ORYZA SATIVA, L. TEBONNET"
number = 1.0

[[record]]
compound = "CCOC(=O)Cn1c(=O)n(CC(=O)OC)c(=O)n(-c2cc(Oc3c(F)cc(C(F)(F)F)cc3Cl)ccc2C#N)c1=O [Compound 12]"
system = "ORYZA SATIVA, L. TEBONNET"
number = 0.0


----------
The entries below come with measured GALAP, herbicide rating (0-9) values attached.
System: GALIUM APARINE
Test: Postemergence herbicidal evaluation, GALAP (Galium)
Type: in vivo
Settings: Rate 0.500 kg/ha, rated four to five weeks after treatment, averaged
Method: In the tests, seedling plants are grown in jiffy flats for about two weeks. The test compounds are dispersed in 50/50 acetone/water mixtures containing 0.5% TWEEN®20, a polyoxyethylene sorbitan monolaurate surfactant of Atlas Chemical Industries, in sufficient quantities to provide the equivalent of about 0.125 kg to 0.500 kg per hectare of active compound when applied to the plants through a spray nozzle operating at 40 psi for a predetermined time. […]
Quantity: GALAP, herbicide rating (0-9)

[[record]]
smiles = "COC(=O)Cn1c(=O)n(C)c(=O)n(-c2cc(Oc3ccc(Cl)cc3Cl)ccc2[N+](=O)[O-])c1=O"
system = "GALIUM APARINE"
number = 9.0

[[record]]
smiles = "COC(=O)Cn1c(=O)n(C)c(=O)n(-c2cc(Oc3ccc([N+](=O)[O-])cc3F)ccc2[N+](=O)[O-])c1=O"
system = "GALIUM APARINE"
number = 2.0

[[record]]
smiles = "COC(=O)Cn1c(=O)n(CC(=O)OC)c(=O)n(-c2cc(Oc3ccc(Cl)cc3Cl)ccc2[N+](=O)[O-])c1=O"
system = "GALIUM APARINE"
number = 9.0

[[record]]
smiles = "COC(=O)Cn1c(=O)n(C)c(=O)n(-c2cc(Oc3c(F)cc(C(F)(F)F)cc3Cl)ccc2[N+](=O)[O-])c1=O"
system = "GALIUM APARINE"
number = 9.0

[[record]]
smiles = "COC(=O)Cn1c(=O)n(C)c(=O)n(-c2cc(Oc3c(F)cc(C(F)(F)F)cc3Cl)ccc2Br)c1=O"
system = "GALIUM APARINE"
number = 9.0

